Assay Summary: NCI Yeast Anticancer Drug Screen. Data for the wt2 strain (AID 169);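 also: 0% = growth of vehicle-treated yeast cultures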
Measurement Conditions: S. cerevisiae wt2 strain growth inhibition; at 1.2 µM; hits give high values
Compounds without any hit were thinned out: in the full panel of roughly 79,000, 15% have a hit.
Recorded growth inhibition for the following compounds
Measured Metric: growth inhibition (%)

• CCC(C)NC1=NCC(C)S1 (stereo unspecified) = -20
• Cc1ccc2nc(-c3cccc([N+](=O)[O-])c3)oc(=O)c2c1 = -22
• COc1cc(/C=C2\CCC/C(=C\c3ccc(O)c(OC)c3)C2=O)ccc1O = 6
• CC(NCCN(C)C)C1CCC2C3CCc4cc(O)ccc4C3CCC12C (stereo unspecified) = -1
• NNC(=O)CCc1cc2ccccc2c2ccccc12 = -8
• O=C1C(=O)c2ccccc2C(O)=C1C(C1=C(O)c2ccccc2C(=O)C1=O)c1ccc(Cl)cc1 = 4
• CC(=O)SC(C[N+](=O)[O-])c1ccccc1 (stereo unspecified) = -3
• CS(=O)(=O)SCc1ccc([N+](=O)[O-])cc1 = -1
• CCCCN(CCCC)CCC(O)c1cc2c(Cl)cc(Cl)cc2c2cc(C(F)(F)F)ccc12 (stereo unspecified) = -46
• COc1cc(/C=C2\NC(=O)N(/C=C3\C(=O)Oc4ccccc4C3=O)C2=O)ccc1O = -1
• Cc1ccc(NC(=O)/C(CC2N=c3c(ccc4c(O)c5ccccc5c(O)c34)=NC2O)=N/NC(C)(C)C)cc1 (stereo unspecified) = 0

---

Measured growth inhibition, listed per entry.
Assay Summary: NCI Yeast Anticancer Drug Screen. Data for the cln2 rad14 strain (AID 165);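 also: 0% = growth equal to vehicle treated cultures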
Measurement Conditions: S. cerevisiae cln2 rad14 strain, at 50.0 µM, hits give high values
Compounds without any hit were thinned out: in the full panel of roughly 79,000, 15% have a hit.
Measured Metric: growth inhibition (%)

• Cc1c(-c2ccccn2)ccc2ccccc12 = 25.4
• O=C(/C=C/c1cc(Cl)cc(Cl)c1O)c1cccc(O)c1 = 91.5
• c1ccc2c(OCC3CO3)cccc2c1 (configuration not stated) = 63.8
• Oc1ccc2ccccc2c1CCc1c(O)ccc2ccccc12 = 88.2
• Cc1nc2ccccc2nc1NNc1ccccc1 = -11.8
• CCCOC(=O)C(F)C(Br)C(=O)OCCC (configuration not stated) = 90.7
• COc1cccc2c1C(=O)c1c(O)c3c(c(O)c1C2=O)CC(O)(C(O)CO)CC3OC1CC(N2CCOCC2)C(O)C(C)O1 (configuration not stated) = 90.8
• Cc1ccc(Sc2ccccc2N)cc1 = 91.7
• CCOC(=O)C1N=[N+](c2ccccc2)C(=O)/C1=C\n1c(=S)[nH]c2ccc([N+](=O)[O-])cc21 (configuration not stated) = 47.9
• O=[N+]([O-])c1cc(Cl)cnc1Br = 3.2
• CCCC(=O)Oc1c(C)cc([N+](=O)[O-])cc1[N+](=O)[O-] = 93.5
• COC(=O)Oc1cc(Cl)c(Cl)cc1Cl = 22.6

---

// values below are reported growth inhibition
Assay Summary: NCI Yeast Anticancer Drug Screen. Data for the rad50 strain (AID 155);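 also: 0% = growth of vehicle-only cultures of the same strain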
Measurement Conditions: S. cerevisiae rad50 strain growth inhibition; at 5.0 µM (retest, dose inferred, filed as 0.5); hits give high values
Procedure: Growth inhibition of yeast strains with defined genetic alterations is measured as a screen for potential anti-cancer activity. Selected strains with alterations in DNA damage repair or cell cycle control were exposed to compounds and growth inhibition was measured relative to vehicle treated controls. The strain used in this assay is rad50
Compounds without any hit were thinned out: in the full panel of roughly 79,000, 15% have a hit.
Measured Metric: growth inhibition (%)

• CC1CC(C)(C)CC(OCCN2CCCCC2)(c2ccccc2)C1 (stereo not given) = 28
• Cc1ccc(Cl)cc1NC(=O)OCCN(C)C(=O)Nc1cc(Cl)ccc1C = 57
• CCC1(OC(=O)CN2CCN(CCO)CC2)C(=O)OCc2c1cc1n(c2=O)Cc2cc3ccccc3nc2-1 (stereo not given) = 4
• CCOc1ccccc1N=Cc1c2ccccc2cc2ccccc12 = 11
• CNC(=O)OCc1c(COC(=O)NC)c(-c2ccc(Cl)cc2)n2c1CCC2 = 21
• CC(C)C(C)/C=C\C(C)C1CCC2C3=CC=C4CC(O)CCC4(C)C3CCC21C (stereo not given) = 51
• Cc1cccc(C(C)(C)C)c1NC(=O)C(C#N)C1=C(Cl)C(=O)c2ccccc2C1=O (stereo not given) = -1
• CCN(CC)CCN(C)CCc1ccc(Br)cc1 = -6
• C[C@@](O)(/C=C/[C@H]1CC=CC(=O)O1)[C@@H](C[C@@H](O)\C=C/C=C\C=C\CO)OP(=O)(O)O = 1
• CC[N+]1(C)CCC(O)(c2ccc(OC)cc2)C(C(=O)c2ccc(OC)cc2)C1 (stereo not given) = 24

---

Assay Summary: NCI Yeast Anticancer Drug Screen. Data for the rad18 strain (AID 177)
Measurement Conditions: S. cerevisiae rad18 mutant growth inhibition; at 1.2 µM; hits give high values
Description: Growth inhibition of yeast strains with defined genetic alterations is measured as a screen for potential anti-cancer activity. Selected strains with alterations in DNA damage repair or cell cycle control were exposed to compounds and growth inhibition was measured relative to vehicle treated controls. The strain used in this assay is rad18
About 79,000 compounds went through this panel and 15% of them were active in at least one assay; those are over-represented in the sample as a whole.
Measured Metric: growth inhibition (%)

• O=C(Nc1ccc(Cl)cc1)Nc1nnc2nc(C(C(=O)c3cccc([N+](=O)[O-])c3Cl)c3nc4nnc(NC(=O)Nc5ccc(Cl)cc5)n4[nH]c3=O)c(=O)[nH]n12 = -1
• O=C1Nc2ccccc2/C1=C/c1ccccc1 = 0
• Nc1nc(N)c2nc(CNc3ccc(C(=O)NC(CCC(=O)O)C(=O)O)cc3F)cnc2n1 (centres undefined) = 20
• CCCCCCSc1ncnc2[nH]ncc12 = -2
• CC1SC2(C(=O)Nc3ccc(Cl)cc32)N(c2ccc(Cl)cc2)C1=O (centres undefined) = -41
• COc1ccc(C2C3=C(COC3=O)OC(C)(C)Oc3cc4c(cc32)OCO4)cc1OC (centres undefined) = -4
• COc1cc(C2c3cc4c(cc3OC(OC(C)=O)C2C)OCO4)cc(OC)c1OC (centres undefined) = -3
• Nc1ccn(C2OC(COP(=O)(O)O)C(O)C2O)c(=O)n1 (centres undefined) = -1
• N#CNC(N)=Nc1cc2ccccc2c2ccccc12 = 21
• COc1cc2cc3c4cc(OC)c(OC)cc4cc[n+]3c(C)c2cc1OC = -23
• Cc1csc(=S)n1OC(=O)NC1CCCCC1 = -11
• C=C(C(=C)n1nnc(C(=O)OC)c1C(=O)OC)n1nnc(C(=O)OC)c1C(=O)OC = 0
• Cc1ccc2nc(-c3cccc([N+](=O)[O-])c3)oc(=O)c2c1 = -14
• O=[N+]([O-])c1cc(F)c(F)cc1Sc1cc(F)c(F)cc1[N+](=O)[O-] = 38
• Cc1cc(N(CCOS(C)(=O)=O)CCOS(C)(=O)=O)ccc1C=Nc1ccc(-c2nc(Cc3ccccc3)sc2C)cc1 = 41
• CCOC(=O)C(Br)C(Br)c1ccccc1Cl (centres undefined) = 10
• CCCC(O)C1CC(C(C)C)CCC1C (centres undefined) = 0
• NC(=O)c1c([N+](=O)[O-])cc(C(F)(F)F)cc1[N+](=O)[O-] = 0
• CCOC(=O)/C(=C\c1ccc(C#N)cc1)C(C)=O = -30
• COc1ccc(N=CN(C)C)c(C)c1 = -50
• O=C1C(=O)c2ccccc2C(O)=C1C(C1=C(O)c2ccccc2C(=O)C1=O)c1ccc(Cl)cc1 = 23
• Cc1ccc([N+]2=NC(c3ccccc3)=NN(c3ccccc3)C2)cc1 = 2
• O=[N+]([O-])/C=C/c1cc(Cl)c(/C=C/[N+](=O)[O-])cc1Cl = 19
• O=C(Oc1ccc2c(c1)CN(Cc1ccccc1)CO2)c1ccccc1 = 17
• N=C1N=Nc2nc(C3(c4nc5n(c4O)C(=N)N=N5)Cc4ccccc4C3=O)c(O)n21 (centres undefined) = 3
• CCCCOC(=O)Nc1ccc(C)c(NC(=O)OCCCC)c1 = -5
• CSc1nnc(SC)nn1 = -4
• CCOC(=O)C1=C(C)NC(C)=C(C(=O)OCCNC(=O)c2ccc(N=[N+]=[N-])cc2)C1c1ccccc1C(F)(F)F (centres undefined) = 3
• N#CC(C#N)=NNc1ccc(S(=O)(=O)O)cc1 = 2
• c1ccc2[nH]c(-c3cscn3)nc2c1 = -1
• Cc1nc2c(Br)cc(Br)cc2c(=O)n1-c1ccccc1NC1OCC(O)C(O)C1O (centres undefined) = 42
• Cc1cc(C(C)(C)C)c(OCCCN2CCOCC2)c(C(C)(C)C)c1 = -1
• CCOC(=O)c1[nH]cc(C)c1-c1cccn1-c1ccc(Cl)cc1[N+](=O)[O-] = 23
• CC(C)c1ccc(NC(=S)NC(=O)c2ccccc2)cc1 = -28
• COc1cc(O)c(O)c(C(C)(C)C)c1 = 0
• Oc1ccc(-c2nc(-c3ccc(F)cc3)c(-c3ccc4ccccc4n3)[nH]2)cc1 = -28
• CCC(C)(C)c1ccc(Oc2cccc(C(=O)O)c2)cc1 = 8
• O=C(NNc1ccccc1)C(O)C(O)C(O)C(O)C(O)CO (centres undefined) = 5
• CCCCc1ccc(-n2c(C)c(COC(=O)NC)c(COC(=O)NC)c2C)cc1 = -27
• CC[N+]1(C)CCC(O)(c2ccc(OC)cc2)C(C(=O)c2ccc(OC)cc2)C1 (centres undefined) = -7
• Cc1c2ccnc(C(=O)NCCN(C)C)c2cc2c3cc(O)ccc3n(C)c12 = -5
• CCCC/C=C/C(C)(C(=O)OCC)C(=O)OCC = -4
• COc1cccc2c1C(=O)c1c(O)c3c(c(O)c1C2=O)CC(O)(C(O)CO)CC3OC1CC(N2CCOCC2)C(O)C(C)O1 (centres undefined) = 96
• C[Si](C)(C)/C=C/CCNC(C#N)c1ccccc1 (centres undefined) = -33
